Target: Type-1 angiotensin II receptor A (Rattus norvegicus)
Sequence (P25095 whole entry): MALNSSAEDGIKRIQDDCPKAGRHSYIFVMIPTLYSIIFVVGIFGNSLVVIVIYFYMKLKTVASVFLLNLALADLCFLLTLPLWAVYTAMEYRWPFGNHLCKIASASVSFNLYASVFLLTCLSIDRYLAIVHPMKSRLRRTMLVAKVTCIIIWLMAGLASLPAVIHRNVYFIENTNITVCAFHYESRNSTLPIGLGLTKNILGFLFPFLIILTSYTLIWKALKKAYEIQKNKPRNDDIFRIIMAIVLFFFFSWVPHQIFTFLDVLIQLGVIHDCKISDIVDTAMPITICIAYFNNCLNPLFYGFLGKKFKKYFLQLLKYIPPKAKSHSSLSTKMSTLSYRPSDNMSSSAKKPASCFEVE
property_label: Ki

Please report the recorded Ki for COC(=O)c1cc(CC2SC(=O)NC2=O)ccc1OCCn1c(CCCCC2CCCCC2)nc2ccccc21 (stereo unspecified) .
> 10 µM
